assay: Selectivity ratio of Ki for recombinant mouse macrophage iNOS to Ki for recombinant rat nNOS
Parameter threshold = 50. Response is TRUE when Ratio Ki meets or exceeds it, else FALSE.

1) Cc1cc(N)nc(COc2cccc(OCc3ccncc3)c2)c1 = FALSE

Q. Assess whether reported Ratio Ki for `Cc1cc(N)nc(CCCCCCCc2cc(C)cc(N)n2)c1` sits at 50 or higher.
A. FALSE

Q. Assess whether reported Ratio Ki for `Cc1cc(N)nc(COCc2cccc(CNCCc3cccc(F)c3)n2)c1` sits at 50 or higher.
A. FALSE

Q. Assess whether reported Ratio Ki for `Cc1cc(N)nc(CCCCCCc2cc(C)cc(N)n2)c1` sits at 50 or higher.
A. TRUE

Q. Assess whether reported Ratio Ki for `Cc1cc(N)nc(COc2cccc(OCC3CCNCC3)c2)c1` sits at 50 or higher.
A. TRUE

Q. Assess whether reported Ratio Ki for `Cc1cc(N)nc(COc2cccc(OCCCN)c2)c1` sits at 50 or higher.
A. TRUE
